- measurementProtocol: Inhibition of CAMK2
endpoint: IC50 (µM)

Request: Which IC50 reading was recorded for the molecule CN1CCc2nc(NCCc3ccccc3)nc(NS(=O)(=O)c3ccccc3)c2C1 ?
Response: 10

1 = COc1ccc(S(=O)(=O)N(CCO)c2ccccc2CN(C)C/C=C/c2ccc(Cl)cc2)cc1
2 = O=S(=O)(Nc1ccnc(NCCc2ccccc2)n1)c1ccc(Cl)cc1
3 = Cc1ccccc1S(=O)(=O)Nc1nc(NCCc2ccccc2)nc2c1CN(Cc1ccccc1)CC2
Request: Thanks in advance: please rank these 3 entries by IC50, highest to lowest. Please list the labels in the order you were asked to rank them.
Response: 2, 1, 3
(2: 11 µM, 1: 1.6 µM, 3: 0.53 µM)

----------
- measurementProtocol: Inhibition of CAMK2
pIC50: −log10 of the molar value.
endpoint: pIC50

a = O=S(=O)(Nc1nc(OCCc2ccccc2)nc2c1CN(Cc1ccccc1)CC2)c1ccc2ccccc2c1
b = CN(c1nc(NCCc2ccccc2)nc2c1CN(Cc1ccccc1)CC2)S(=O)(=O)c1ccccc1
c = O=S(=O)(Nc1nc(NCCc2ccccc2)nc2c1CN(Cc1ccccc1)CC2)c1cccc2ccccc12
Request: # rank_down: sort by pIC50, max first Please list the labels in the order you were asked to rank them.
Response: a, c, b

1 = Cc1cccc(S(=O)(=O)Nc2nc(NCCc3ccccc3)nc3c2CN(Cc2ccccc2)CC3)c1
2 = O=S(=O)(Nc1nc(NCCc2ccccc2)nc2c1CN(Cc1ccccc1)CC2)c1cccc(Cl)c1Cl
Request: Would you mind telling me which has the lower recorded pIC50 between 1 and 2 ? # answer = label of selected item
Response: 1
(1: 5.62, 2: 6.00)

----------
- measurementProtocol: Inhibition of CAMK2
pIC50: −log10 of the molar value.
endpoint: pIC50

Solved cases (3 shown):
Request: Which pIC50 reading was recorded for the compound O=S(=O)(Nc1nc(NCCc2ccccc2)nc2c1CN(Cc1ccccc1)CC2)c1ccc(Cl)cc1 ?
Response: 5.49

Request: Which pIC50 reading was recorded for the compound O=S(=O)(Nc1nc(NCCc2ccccc2)nc2c1CN(Cc1ccccc1)CC2)c1ccccc1Cl ?
Response: 6.04

Request: Which pIC50 reading was recorded for the compound Cc1ccc(S(=O)(=O)Nc2nc(NCCc3ccccc3)nc3c2CN(Cc2ccccc2)CC3)cc1Cl ?
Response: 6.12

A = COc1ccc(S(=O)(=O)Nc2nc(NCCc3ccccc3)nc3c2CN(Cc2ccccc2)CC3)cc1
B = O=S(=O)(Nc1nc(NCCc2ccccc2)nc2c1CN(Cc1ccccc1)CC2)c1cccc(Cl)c1
Request: Would you mind telling me which has the lower recorded pIC50 between A and B ? # answer = label of selected item
Response: A
(A: 5.49, B: 6.38)

----------
- measurementProtocol: Inhibition of CAMK2
pIC50: −log10 of the molar value.
endpoint: pIC50

Solved cases (6 shown):
Request: Which pIC50 reading was recorded for the molecule O=S(=O)(Nc1nc(NCCc2ccccc2)nc2c1CN(Cc1ccccc1)CC2)c1ccccc1 ?
Response: 5.01

Request: Which pIC50 reading was recorded for the molecule O=S(=O)(Nc1nc(NCCc2ccccc2)nc2c1CN(Cc1ccccc1)CC2)c1ccc(Cl)c(Cl)c1 ?
Response: 6.70

Request: Which pIC50 reading was recorded for the molecule O=S(=O)(Cc1ccccc1)Nc1ccnc(NCCc2ccccc2)n1 ?
Response: 4.57

Request: Which pIC50 reading was recorded for the molecule O=S(=O)(Nc1nc(NCCc2ccccc2)nc2c1CCCC2)c1ccc(Cl)cc1 ?
Response: 4.22

Request: Which pIC50 reading was recorded for the molecule O=S(=O)(Nc1nc(NCCc2ccccc2)nc2c1CN(Cc1ccccc1)CC2)c1ccc2ccccc2c1 ?
Response: 6.80

Request: Which pIC50 reading was recorded for the molecule CS(=O)(=O)Nc1ccnc(NCCc2ccccc2)n1 ?
Response: 4.22

1 = Cc1c(Cl)cccc1S(=O)(=O)Nc1nc(NCCc2ccccc2)nc2c1CN(Cc1ccccc1)CC2
2 = Cc1ccc(S(=O)(=O)Nc2nc(NCCc3ccccc3)nc3c2CN(Cc2ccccc2)CC3)cc1
Request: Name the one with the greater pIC50 value, either 1 or 2 as given. # answer = label of selected item
Response: 1
(1: 7.20, 2: 5.57)
